molecular target: UniProtKB P04585
Hi! Could you tag entries with IC50 below 0.02 µM as met, and those at or above as not met? Much appreciated.

Examples from the recorded data:
| Compound | Label |
| --- | --- |
| CCCC1(c2ccccc2)NC(=N)N(Cc2cccc(C(=O)N3Cc4cncnc4C3)c2)C1=O (stereo not shown) [Compound 302] | not met |
| Cc1nnc(-c2cccc(-c3ncc4c(n3)CN(C(=O)c3cc(CN5C(=N)N[C@](CCCC(F)(F)F)(c6ccc(F)cc6)C5=O)ccc3C(F)(F)F)C4)c2)o1 [Compound 48] | met |
| C[C@H](c1cccc(C(=O)N2Cc3nccnc3C2)c1)N1C(=N)NC(c2ccccc2)(c2ccccc2)C1=O [Compound 185] | not met |
| N=C1N[C@](CCCC(F)(F)F)(c2ccc(F)cc2)C(=O)N1Cc1ccc(C(F)(F)F)c(C(=O)N2CCN(CC(F)(F)F)CC2)c1 [Compound 127] | not met |
| C[S+]([O-])c1cccc(-c2ncc3c(n2)CN(C(=O)c2cc(CN4C(=N)N[C@](CCCC(F)(F)F)(c5ccc(F)cc5)C4=O)ccc2C(F)(F)F)C3)c1 (stereo partly shown) [Compound 21] | met |

Request: Dear reviewer, please state whether COC(=O)N1CCN(C(=O)c2cccc(CN3C(=N)NC(c4ccc(F)cc4)(c4cccc(Br)c4)C3=O)c2)CC1 (stereo not shown) [Compound 240] has IC50 strictly beneath 0.02 µM.
Result: met

Request: Strictly below 0.02 µM in IC50? CC(C)NC(=O)N1CCN(C(=O)c2cc(F)cc(CN3C(=N)NC(c4ccccc4)(c4ccccc4)C3=O)c2)CC1 [Compound 293]
Result: not met

Request: Determine if CC(C)CCC1(c2cccc(F)c2)NC(=N)N(Cc2cccc(C(=O)N3Cc4nccnc4C3)c2)C1=O (stereo not shown) [Compound 265] shows IC50 strictly lower than 0.02 µM.
Result: not met

* * *

target: wild-type HIV-1 protease (Human immunodeficiency virus type 1 group M subtype B, UniProt P04585)
Readout type: IC50 (nM)
Numbers only, in nM.

| Molecule | Measurement unit | IC50 |
| --- | --- | --- |
| N=C1N[C@](CCCC(F)(F)F)(c2ccc(F)cc2)C(=O)N1Cc1ccc(C(F)(F)F)c(C(=O)N2Cc3cnc(-c4cccc(C(=O)N5CCSCC5)c4)nc3C2)c1 | nM | 7.87 |
| CNc1ncc2c(n1)CN(C(=O)c1cc(CN3C(=N)N[C@](CCCC(F)(F)F)(c4ccc(F)cc4)C3=O)ccc1C(F)(F)F)C2 | nM | 8.3 |
| N=C1N[C@](CCCC(F)(F)F)(c2ccc(F)cc2)C(=O)N1Cc1ccc(C(F)(F)F)c(C(=O)N2Cc3cnc(-c4cnc(-n5cccn5)nc4)nc3C2)c1 | nM | 8.8 |
| COC(=O)N1CCN(C(=O)c2cccc(CN3C(=N)NC(CCC(C)C)(c4ccc(F)cc4)C3=O)c2)CC1 (centres unmarked) | nM | 15.1 |

The molecule N=C1NC(c2ccc(F)cc2)(c2ccc(F)cc2)C(=O)N1Cc1ccc(Cl)c(C(=O)N2Cc3cncnc3C2)c1 showed IC50 equal to 9.6

* * *

biological target: wild-type HIV-1 protease (Human immunodeficiency virus type 1 group M subtype B)
Readout type: pIC50
Give bare numbers, as −log10 of the molar value.

Here are 5 compounds together with their reported answers.
| Compound | Measured on | Numeric result |
| --- | --- | --- |
| CN1CCN(C(=O)c2cc(CN3C(=N)NC(c4ccc(F)cc4)(c4ccc(F)cc4)C3=O)ccc2C(F)(F)F)CC1=O | wild-type HIV-1 protease (Human immunodeficiency virus type 1 group M subtype B) | 7.85 |
| Cc1cc(CN2C(=N)NC(c3ccc(F)cc3)(c3ccc(F)cc3)C2=O)cc(C(=O)N2Cc3nccnc3C2)n1 | wild-type HIV-1 protease (Human immunodeficiency virus type 1 group M subtype B) | 7.98 |
| CC(C)CC(c1ccc(C(F)(F)F)c(C(=O)N2Cc3nccnc3C2)c1)N1C(=N)N[C@](CC2CC2)(c2ccccc2)CC1=O (some centres unmarked) | wild-type HIV-1 protease (Human immunodeficiency virus type 1 group M subtype B) | 7.98 |
| CC(C)CCC1(c2ccccc2)NC(=N)N(Cc2cccc(C(=O)N3Cc4ccccc4C3)c2)C1=O (centres unmarked) | wild-type HIV-1 protease (Human immunodeficiency virus type 1 group M subtype B) | 8.13 |
| CN(C)c1ncnc2c1CN(C(=O)c1cccc(CN3C(=N)NC(c4ccc(F)cc4)(c4ccc(F)cc4)C3=O)c1)C2 | wild-type HIV-1 protease (Human immunodeficiency virus type 1 group M subtype B) | 7.96 |

Items follow; give pIC50 for each.
1. C[C@H](c1cccc(C(=O)N2Cc3cnn(C)c3C2)c1)N1C(=N)NC(c2ccc(F)cc2)(c2ccc(F)cc2)C1=O
2. N=C1N[C@](CCCC(F)(F)F)(c2ccc(F)cc2)C(=O)N1Cc1ccc(C(F)(F)F)c(C(=O)N2Cc3cnc(-c4ccc(-n5cccn5)nc4)nc3C2)c1

Result:
1: 8.18; 2: 7.80

Record CC(C)CCC1(c2ccccc2)NC(=N)N(Cc2cccc(C(=O)N3Cc4cncnc4C3)c2)C1=O (centres unmarked) , field pIC50: 7.90

Values were extracted from patent US20200069691A1.
